system: Rattus norvegicus; experiment: Increase in NADPH cytochrome c reductase activity in sucrose-fed Sprague-Dawley rat model at 0.4 mmol/kg, po bid administered for 7 days measured after 12 hrs post last dose relative to control; assay type: ADME, organism-based; settings: in vivo
readout: Activity

In: Please report Activity with Rattus norvegicus for item CCOC(=O)C(C)(C)Oc1ccc(Cl)cc1 [CLOFIBRATE] .
Out: 163%
